Tested on: LD1 and LD5
Assay: Screening of amphiphiles for ability to discriminate between LD1 and LD5
Conditions: range of amphiphile concentrations; relative activity vs buffer
Where a name gives a salt, the structure may show the parent alone.
readout: Effectiveness (LDH isoenzyme inhibition specificity, LD1 vs LD5)

Worked cases, answers included:
compound | recorded value
CCCCCCCCCCCC(=O)[O-].[Na+] [Sodium dodecanoate] | 0
CCCCCCCCCCCCN [Dodecylamine . HCl] | ++
CCCCCCCCCCCC[N+](C)(C)C.[Br-] [Dodecyltrimethylammonium bromide] | -
CCCCCCCC[N+](CCC)(CCCCCCCC)CCCCCCCC.[Br-] [Trioctylpropylammonium bromide] | 0
CCCCCCCCCCCCOS(=O)(=O)[O-].[Na+] [SDS, sodium dodecylsulfate] | ++

[Q] State its Effectiveness (LDH isoenzyme inhibition specificity, LD1 vs LD5): CCCCOS(=O)(=O)[O-].[Na+] [Sodium butyl sulfate]
[A] 0

[Q] State its Effectiveness (LDH isoenzyme inhibition specificity, LD1 vs LD5): CCCCCCCCCCCCCCOS(=O)(=O)[O-].[Na+] [Sodium tetradecylsulfate]
[A] ++

[Q] State its Effectiveness (LDH isoenzyme inhibition specificity, LD1 vs LD5): CCCCCCCCOS(=O)(=O)[O-].[Na+] [Sodium octyl sulfate]
[A] +

[Q] State its Effectiveness (LDH isoenzyme inhibition specificity, LD1 vs LD5): CCCCCCCCCCOS(=O)(=O)[O-].[Na+] [DSS, sodium decylsulfate]
[A] ++

* * *

Biological target: LD1 (Sus scrofa, UniProt P00336)
Sequence (P00336 whole entry): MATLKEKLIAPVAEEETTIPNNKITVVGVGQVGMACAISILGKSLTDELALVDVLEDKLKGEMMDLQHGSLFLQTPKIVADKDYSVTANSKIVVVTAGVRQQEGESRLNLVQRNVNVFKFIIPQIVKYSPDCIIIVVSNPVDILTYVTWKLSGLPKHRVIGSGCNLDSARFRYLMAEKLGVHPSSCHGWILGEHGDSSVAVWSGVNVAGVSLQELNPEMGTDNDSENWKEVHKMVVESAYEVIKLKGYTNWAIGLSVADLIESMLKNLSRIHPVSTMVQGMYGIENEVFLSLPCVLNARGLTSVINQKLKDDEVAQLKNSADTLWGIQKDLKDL
Structures can show the parent of a compound that is named as a salt.
Decide using IC50 alone. Strictly below 10000 µM: yes (1). Equal to or above 10000 µM: no (0).

[Q] Given CCCCCCCCCCCCCCCC[N+](C)(C)C.[Br-] [CTAB, hexadecyltrimethylammonium bromide] , is recorded IC50 strictly lower than 10000 µM?
[A] yes (1)

[Q] Given CCCCCCCCC[N+](C)(C)C [Nonatrimethylammonium bromide] , is recorded IC50 strictly lower than 10000 µM?
[A] yes (1)

[Q] Given CCCCCCCC[N+](CCC)(CCCCCCCC)CCCCCCCC.[Br-] [Trioctylpropylammonium bromide] , is recorded IC50 strictly lower than 10000 µM?
[A] yes (1)

[Q] Given CCCCCCCCCCCCN [Dodecylamine . HCl] , is recorded IC50 strictly lower than 10000 µM?
[A] no (0)

* * *

Target: LDH isoenzymes (LD5 in the presence of LD1) (Oryctolagus cuniculus, UniProt P13491)
Construct: LD1 (LDHB tetramer) only as comparison
Assay: Anionic amphiphiles tested for specific interaction with LDH isoenzymes (Table 2)
Format: biochemical
Protocol: The assay for LDH activity in both the absence and presence of surfactant was conducted as follows. […] The resulting solution contains approximately 5 units/ml. […] To the equilibrated solution […]. of the enzyme solution was added, and the cuvette was rapidly shaken while covering the top of the cuvette with a small piece of Parafilm® and placed back into the spectrophotometer. […]
readout: Interaction (specific inactivation of LD5 in the presence of LD1)

Worked cases, answers included:
compound | recorded value
CCCCCCCCCCCCCCCCCC(=O)[O-].[Li+] [lithium stearate] | no effect
CCCCCCCCCCOS(=O)(=O)[O-].[Na+] [DSS, sodium decylsulfate] | useful positive results
C[C@H](CCC(=O)O)[C@H]1CC[C@H]2[C@@H]3C(=O)C[C@@H]4CC(=O)CC[C@]4(C)[C@H]3CC(=O)[C@]12C [dehydrocholic acid] | no effect
CCCCCCCCCCCC(=O)O | no effect

[Q] State its Interaction (specific inactivation of LD5 in the presence of LD1): CCCCCCCCCCCCOS(=O)(=O)[O-].[Na+] [SDS, sodium dodecylsulfate]
[A] useful positive results
